Target: Metabotropic glutamate receptor 1 (Homo sapiens, UniProt Q13255)
Sequence (Q13255 whole entry): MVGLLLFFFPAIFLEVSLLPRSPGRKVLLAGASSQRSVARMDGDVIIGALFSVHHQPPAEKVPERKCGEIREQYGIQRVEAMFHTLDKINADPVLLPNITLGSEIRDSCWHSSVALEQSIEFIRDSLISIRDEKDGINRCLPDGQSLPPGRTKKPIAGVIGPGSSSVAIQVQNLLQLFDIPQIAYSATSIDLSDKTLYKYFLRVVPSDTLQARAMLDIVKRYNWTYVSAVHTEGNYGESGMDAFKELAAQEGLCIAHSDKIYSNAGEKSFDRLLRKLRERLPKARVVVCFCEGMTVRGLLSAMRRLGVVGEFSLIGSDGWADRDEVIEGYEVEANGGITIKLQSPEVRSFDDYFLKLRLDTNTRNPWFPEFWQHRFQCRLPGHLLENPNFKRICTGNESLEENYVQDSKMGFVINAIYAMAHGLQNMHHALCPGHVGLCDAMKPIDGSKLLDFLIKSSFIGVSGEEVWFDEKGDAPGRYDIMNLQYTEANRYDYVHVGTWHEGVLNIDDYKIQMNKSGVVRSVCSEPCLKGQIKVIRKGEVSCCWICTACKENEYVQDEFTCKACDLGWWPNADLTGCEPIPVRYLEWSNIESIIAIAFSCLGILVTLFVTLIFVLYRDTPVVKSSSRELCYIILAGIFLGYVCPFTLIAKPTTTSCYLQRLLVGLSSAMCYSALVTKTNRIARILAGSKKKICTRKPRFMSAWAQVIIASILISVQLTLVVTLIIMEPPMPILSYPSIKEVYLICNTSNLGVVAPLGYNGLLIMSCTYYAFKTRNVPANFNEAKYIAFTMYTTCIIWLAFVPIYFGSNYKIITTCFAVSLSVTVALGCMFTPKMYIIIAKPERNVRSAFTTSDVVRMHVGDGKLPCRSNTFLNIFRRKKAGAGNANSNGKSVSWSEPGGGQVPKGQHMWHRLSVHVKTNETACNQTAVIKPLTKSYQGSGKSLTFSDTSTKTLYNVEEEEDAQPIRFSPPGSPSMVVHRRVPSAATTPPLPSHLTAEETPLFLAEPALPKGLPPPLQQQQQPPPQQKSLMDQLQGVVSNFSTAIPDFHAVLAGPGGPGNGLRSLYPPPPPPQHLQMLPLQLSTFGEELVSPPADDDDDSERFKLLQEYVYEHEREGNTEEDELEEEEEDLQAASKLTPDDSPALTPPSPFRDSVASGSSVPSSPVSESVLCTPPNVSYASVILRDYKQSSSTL
Test: Negative allosteric modulation of mGlu1 receptor (unknown origin)
pIC50: −log10 of the molar value.
Quantity measured: pIC50

Query block: # value lookup — system Metabotropic glutamate receptor 1 (Homo sapiens, UniProt Q13255), readout pIC50, item CCOC(=O)c1cnc2c(OC)cccc2c1N1CCN(c2ccccc2F)CC1
Result block: < 4.52

* * *

Test: Plasma to brain permeability coefficient, Kp of the compound in CD-1 mouse at 10 mg/kg, ip measured after 0.5 hrs by LC-MS/MS analysis
Type: ADME, organism-based
Quantity measured: Kp at 0.5 h
The answer should be written as a number, with no unit following it.

Query block: Fill in: Kp at 0.5 h of [2H]C([2H])([2H])Oc1cc(F)cc2c(N3CCN(c4ccccc4F)CC3)c(C#N)cnc12 is ___
Result block: 2.74
